Tested on: Vero E6 infected with SARS-CoV-2
Experiment: inhibition of SARS-CoV-2 cytopathic effect; higher = more antiviral protection, active = above 15
Conditions: 8.33 nM; 48 h
Where a name gives a salt, the structure may show the parent alone.
measured-attribute: inhibition of SARS-CoV-2 cytopathic effect (%)
Answers are plain numbers, in %.

// solved cases for inhibition of SARS-CoV-2 cytopathic effect follow
Cc1cc(OCCCS(C)(=O)=O)cc(C)c1-c1cccc(COc2ccc3c(c2)OC[C@H]3CC(=O)O)c1: 0.64
CCCCC/C=C\C/C=C\CCCCCCCC(=O)NCCCC(=O)O [GABA-linoleamide]: 4.17
CC(=O)Nc1cccc(O)c1: 5.41

# per-item lookup of inhibition of SARS-CoV-2 cytopathic effect; items listed below
1. CNC(=O)c1cccc(-c2ccc3c(N4CCOC[C@@H]4C)nc(N4CCOC[C@@H]4C)nc3n2)c1
2. CC(=O)O[C@]1(C(C)=O)CC[C@H]2[C@@H]3CCC4=CC(=O)CCC4=C3[C@@H](c3ccc(N(C)C)cc3)C[C@@]21C [Ulipristal acetate]
3. CC(C)N(CCNC(=O)CN1CCCC1=O)C(C)C
4. CCn1c(=O)c(-c2cc[nH]n2)cc2c(C)nc(N)nc21
5. CC(C)(O)[C@@H]1[C@H]2OC(=O)[C@@H]1[C@]1(O)C[C@H]3O[C@]34C(=O)O[C@H]2[C@]14C

-1.74
2.62
-1.27
3.03
1.31

# per-item lookup of inhibition of SARS-CoV-2 cytopathic effect; items listed below
1. NC(N)=Nc1nc(CSCC/C(N)=N/S(N)(=O)=O)cs1
2. COc1ccccc1N1CCN(CCN2C(=O)c3ccccc3C(C)(C)C2=O)CC1
3. O=C1NCCN1c1ncc([N+](=O)[O-])s1
4. C#C[C@]1(OC(C)=O)CC[C@H]2[C@@H]3CCC4=CC(=NO)CC[C@@H]4[C@H]3CC[C@@]21CC (mixture of isomers) [norgestimate]
5. O=C(O)C(O)Cc1ccc(O)c(O)c1 (configuration not stated) [sodium-danshensu]
6. O=C(/C=C/C=C/c1ccc2c(c1)OCO2)N1CCCCC1
7. C[C@@H](O)[C@H](N)C(=O)N1CCC[C@H]1C(=O)N1CCC[C@H]1C(=O)N[C@H](C(N)=O)[C@@H](C)O

1: -3.04; 2: -2.9; 3: -2.07; 4: 0.96; 5: -0.48; 6: -1.88; 7: -5.74

# per-item lookup of inhibition of SARS-CoV-2 cytopathic effect; items listed below
1. CN[C@H](CC(C)C)C(=O)N[C@H]1C(=O)N[C@@H](CC(N)=O)C(=O)N[C@H]2C(=O)N[C@H]3C(=O)N[C@H](C(=O)N[C@H](C(=O)O)c4cc(O)cc(O)c4-c4cc3ccc4O)[C@H](O)c3ccc(c(Cl)c3)Oc3cc2cc(c3O[C@@H]2O[C@H](CO)[C@@H](O)[C@H](O)[C@H]2O[C@H]2C[C@](C)(N)[C@H](O)[C@H](C)O2)Oc2ccc(cc2Cl)[C@H]1O
2. CN(C)CCOc1ccc(/C(=C(/CCCl)c2ccccc2)c2ccccc2)cc1 [Toremifene citrate]

1.31
0.55

Data provenance is the supplement of paper PMC13380429.
